# Read-out: Intercellular Adhesion Molecule 1 (ICAM1), ICAM1 (gene 3383)
# METHOD DESCRIPTION: LTEA_HepaRG_ICAM1: Life Technologies and Expression Analysis (LTEA) Assay for Intercellular Adhesion Molecule 1 (ICAM1) using HepaRG (AID 2283507)
# MEASUREMENT CONTEXT: mRNA level, 48 h; actives raise or lower the signal
# Method: LTEA_HepaRG is a cell based, multiplexed-readout assay that uses HepaRG, a human liver cell line, with measurements taken at 48 hours after chemical dosing on a 96-well plate.LTEA_HepaRG_ICAM1 is one of 102 assay component(s) measured in the LTEA HepaRG cell culture assay. It is a marker of Fibrosis.Data from the assay component LTEA_HepaRG_ICAM1 was analyzed into 1 endpoint. […]
Activity calls are given as the source filed them. Rule for the calls: active = hit-call score of the fitted dose curve at least 0.9, where 1 is the maximum; inactive = score below 0.9.
Your answer must be one of the following: true (1) = active, false (0) = inactive

Take a look at these entries with their results.
CCOCCOCCO: false (0)
OCC(O)CO: false (0)
CS(=O)(=O)c1ccc([C@@H](C[C@H]2CCC(=O)C2)C(=O)Nc2cnccn2)cc1Cl: true (1)
NC=O: false (0)
O=[Si]=O: false (0)
Cc1ccc(C(C)(C)C)c(O)c1: false (0)
CCCC[C@H]1CN(CC2CCOCC2)C(=O)OC12CCN(C1(C)CCN(C(=O)c3c(C)ncnc3C)CC1)CC2: false (0)
C/C=C/C=C/C(=O)O: false (0)

Q: I would be grateful if you could indicate the recorded call for CCc1nc(N)nc(N)c1-c1ccc(Cl)cc1 .
Result: false (0)

Q: Any idea what this test logged for Nc1nc(=S)c2[nH]cnc2[nH]1 ?
Result: false (0)

Q: Assay result, entry CC(=O)O — outcome?
Result: false (0)

Q: Per the records of this test, what outcome belongs to Oc1ccccc1O ?
Result: false (0)

###

# Read-out: Cytochrome P450 2C19 (Homo sapiens)
# METHOD DESCRIPTION: LTEA_HepaRG_CYP2C19: Life Technologies and Expression Analysis (LTEA) Assay for CYP2C19 using HepaRG (AID 2283482)
# MEASUREMENT CONTEXT: mRNA level, 48 h; actives raise or lower the signal
# Experimental: LTEA_HepaRG is a cell based, multiplexed-readout assay that uses HepaRG, a human liver cell line, with measurements taken at 48 hours after chemical dosing on a 96-well plate.LTEA_HepaRG_CYP2C19 is one of 102 assay component(s) measured in the LTEA HepaRG cell culture assay. It is a marker of NR mediated metabolism.Data from the assay component LTEA_HepaRG_CYP2C19 was analyzed into 1 endpoint. […]
The source made the active and inactive calls. Rule for the calls: active = hit-call score of the fitted dose curve at least 0.9, where 1 is the maximum; inactive = score below 0.9.
One label from this list, please: active, inactive

CC(C)c1cccc(C(C)C)c1: inactive
CC(=O)O: inactive
CN(C)CCCN(C)CCCN(C)C: inactive
C=CCCCCCCCCCCCC: inactive
Cc1ccc(-c2cc(C(F)(F)F)nn2-c2ccc(S(N)(=O)=O)cc2)cc1: active

Q: Recorded test outcome, item CCCCCCC(C=O)=Cc1ccccc1
Result: inactive

Q: // param item: NC1CCCCC1 ; yields the recorded call
Result: inactive

Q: Hi team, can someone confirm the assay call for COc1ccc(OC(F)(F)F)cc1CN[C@H]1CCCN[C@H]1c1ccccc1 ?
Result: active

Q: Hey, what did the test say about O=C(Oc1ccccc1)c1cccc(C(=O)Oc2ccccc2)c1 ?
Result: inactive

Q: For O=Cc1ccccc1C=O , what call appears in the results of this test?
Result: inactive

###

# TGT: Heat shock factor protein 1 (Homo sapiens) (UniProt Q00613)
# Sequence (Q00613 whole entry, looked up): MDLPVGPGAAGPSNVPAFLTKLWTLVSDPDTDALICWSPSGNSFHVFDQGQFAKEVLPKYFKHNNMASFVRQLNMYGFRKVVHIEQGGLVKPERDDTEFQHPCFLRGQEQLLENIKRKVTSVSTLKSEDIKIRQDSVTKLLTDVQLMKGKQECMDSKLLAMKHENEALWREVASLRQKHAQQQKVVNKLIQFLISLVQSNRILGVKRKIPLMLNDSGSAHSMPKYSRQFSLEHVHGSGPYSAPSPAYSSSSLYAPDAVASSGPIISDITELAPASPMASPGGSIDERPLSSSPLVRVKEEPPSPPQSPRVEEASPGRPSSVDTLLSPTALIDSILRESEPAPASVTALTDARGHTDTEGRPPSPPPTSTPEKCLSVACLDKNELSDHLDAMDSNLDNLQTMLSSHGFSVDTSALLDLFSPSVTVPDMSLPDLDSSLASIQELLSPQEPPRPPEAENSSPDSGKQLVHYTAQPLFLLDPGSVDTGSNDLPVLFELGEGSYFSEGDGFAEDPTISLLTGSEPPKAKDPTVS
# METHOD DESCRIPTION: ATG_HSE_CIS: Attagene CIS-FACTORIAL HepG2 Assay for human Heat Shock Transcription Factor 1 (HSE) (AID 2282953)
# MEASUREMENT CONTEXT: HepG2 HSE cis-reporter, Attagene RNA transcription; actives raise or lower the signal
Active and inactive are the calls of the source. How the source made its calls: active means hit-call score of the fitted dose curve at least 0.9, where 1 is the maximum; inactive means score below 0.9.
// one of yes (active), no (inactive), no free text

CCCCCCCCCCCCCCCCO: no
CCC(C)N(C)C(=O)c1cc2ccccc2c(-c2ccccc2Cl)n1 (configuration not stated): yes
Cc1ccc(C(C)(C)C)c(O)c1: no
O=C1CCCCC1: no
O=C(NS(=O)(=O)/C=C/c1cccs1)c1ccc(F)cc1Br: no
O=Cc1ccccc1C=O: no
OCC(CO)n1cnc(-c2ccc(F)cc2)c1-c1ccnc(Oc2ccccc2)n1: no
Cc1cn([C@H]2C=C[C@@H](CO)O2)c(=O)[nH]c1=O: no
CCOCCOCCO: no
CCCCC(CC)CO (configuration not stated): no

Q: GET /call?item= O=C1O[C@H]([C@H](O)CO)C(O)=C1O returns the recorded outcome of this test.
Result: no

Q: Just curious, what result did CC(C)(C)c1ccccc1 get here?
Result: no

Q: Hi, do you know how CCCCc1nc2cccnc2n1Cc1ccc(-c2ccccc2-c2nnn[nH]2)cc1 came out in this test?
Result: no

Q: Called result for CC(C)OC(=O)C(C)(C)Oc1ccc(C(=O)c2ccc(Cl)cc2)cc1
Result: no

Q: Assay outcome for NC(=Nc1ccccc1)Nc1ccccc1 : what was it?
Result: no

Q: Per the records of this test, what outcome belongs to CCc1cc(C2=C(C(=O)O)N(c3ccccc3C(F)(F)F)S(=O)(=O)c3ccccc32)cc2c1OCO2 ?
Result: yes

Q: Record lookup: outcome of this test for c1ccc2occc2c1 ?
Result: no

###

# METHOD DESCRIPTION: BSK_CASM3C_Proliferation: Cell Proliferation Assessment in the BioMAP Diversity Plus: CASM3C Assay (AID 2283047);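 note: sulforhodamine B total protein stain as relative cell number at 560 nm; sub-confluent cells exposed 48 h before staining; fitted both ways against DMSO so gain or loss of cell number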
# MEASUREMENT CONTEXT: primary human coronary artery smooth muscle cells
Activity calls are given as the source filed them. Rule for the calls: active = hit-call score of the fitted dose curve at least 0.9, where 1 is the maximum; inactive = score below 0.9.
Valid outcomes are listed here; reply with one: yes (active), no (inactive)

Here are 5 compounds together with their reported answers.
O=[Si]=O: no
Nc1nc(=S)c2[nH]cnc2[nH]1: yes
CC(C)COC(=O)CCCCC(=O)OCC(C)C: no
O=C(O)c1[nH]n(-c2ccc(S(=O)(=O)O)cc2)c(=O)c1N=Nc1ccc(S(=O)(=O)O)cc1: no
O=C(N[C@@H](c1ccccc1)[C@@H]1CCCCN1)c1cccc(C(F)(F)F)c1Cl: yes

Q: Check the results log: what was the call for CC(N)=O ?
Result: no

Q: Just curious, what result did CCOCCOCCO get here?
Result: no

Q: What did this assay record as the result for CO[C@@H]1COCC[C@@H]1N[C@@H]1CC[C@@](C(=O)N2CCc3ncc(C(F)(F)F)cc3C2)(C(C)C)C1 ?
Result: no

Q: How did this test come out for CC(C)NCC(O)c1ccc(O)c(O)c1 (stereo unspecified) ?
Result: no

Q: Test call for this compound, please: NC(=Nc1ccccc1)Nc1ccccc1
Result: no

Q: In this assay, the call recorded for C/C=C/c1ccc(OC)cc1 was what?
Result: no

###

# Read-out: Broad substrate specificity ATP-binding cassette transporter ABCG2 (Homo sapiens)
# METHOD DESCRIPTION: LTEA_HepaRG_ABCG2: Life Technologies and Expression Analysis (LTEA) Assay for ABC Transporter (ABCG2) using HepaRG (AID 2283465)
# MEASUREMENT CONTEXT: mRNA level, 48 h; actives raise or lower the signal
Activity calls are given as the source filed them. The calls were made as follows: active = hit-call score of the fitted dose curve at least 0.9, where 1 is the maximum; inactive = score below 0.9.
EXPERIMENTAL READOUT: AC50

NC1CCCCC1: inactive
O=C(Oc1ccccc1)c1cccc(C(=O)Oc2ccccc2)c1: inactive
CCC(C)N(C)C(=O)c1cc2ccccc2c(-c2ccccc2Cl)n1 (stereo unspecified): 4.44 µM (active)
OCC(CO)n1cnc(-c2ccc(F)cc2)c1-c1ccnc(Oc2ccccc2)n1: 16 µM (active)
CC(C)OC(=O)C(C)(C)Oc1ccc(C(=O)c2ccc(Cl)cc2)cc1: inactive

Q: Determine from records and report AC50 for Cc1occc(=O)c1O
Result: inactive

Q: Provide AC50 value for the following molecule: O=NO
Result: inactive

Q: Consider the molecule O=C1OC(c2ccc(O)cc2)(c2ccc(O)cc2)c2ccccc21 . State its measured AC50.
Result: 79.2 µM (active)

Q: Give me measured AC50, please, for this molecule: Cn1cnc2c1c(=O)[nH]c(=O)n2C
Result: inactive

Q: Please report AC50 for the following molecule: CC(C)c1cccc(C(C)C)c1NC(=O)NS(=O)(=O)c1cc(C(C)(C)O)co1
Result: 12.6 µM (active)

Q: Annotate the molecule CC(=O)OCC(COC(C)=O)OC(C)=O with its measured AC50.
Result: inactive

Q: Return reported AC50. Input molecule: S=c1[nH]c2ccccc2s1
Result: inactive

Q: Read the entry CN(C)C(=O)NC1(c2ccccc2)CCN(CCC[C@]2(c3ccc(Cl)c(Cl)c3)CCCN(C(=O)c3ccccc3)C2)CC1 and write its reported AC50.
Result: inactive

Q: Determine from records and report AC50 for NC(=Nc1ccccc1)Nc1ccccc1
Result: inactive

Q: Consider the molecule C#CC(O)C(CC)CCCC (stereo unspecified) and give its recorded AC50.
Result: inactive
